Entry source: the supplement of paper PMC10307832

tested on: PC-3 [JPC-3]; assay: relative viability (nuclei count vs DMSO), 5 days (fraction); higher = more cells survive; details: first compound 0.4 µM
quantity_measured: relative viability
Respond with the number and no other words.

Example entries begin here.
Recorded relative viability for C[C@@H]1CN(CC(=O)Nc2ccc3c(c2)Cc2cccc(-c4cc(=O)cc(N5CCOCC5)o4)c2S3)C[C@H](C)O1 + CC(=O)Nc1cccc(-n2c(=O)n(C3CC3)c(=O)c3c(Nc4ccc(I)cc4F)n(C)c(=O)c(C)c32)c1 [Trametinib] (partner 0.02 µM) , please?
0.666

Please give the result for Clc1ccc(Nc2nnc(Cc3ccncc3)c3ccccc23)cc1 [Vatalanib] + Nc1nc2[nH]cc(CCc3ccc(C(=O)N[C@@H](CCC(=O)O)C(=O)O)cc3)c2c(=O)[nH]1 [Pemetrexed] (partner 0.2 µM) too.
0.803

Please give the result for C[C@@H]1CN(CC(=O)Nc2ccc3c(c2)Cc2cccc(-c4cc(=O)cc(N5CCOCC5)o4)c2S3)C[C@H](C)O1 + CC1(C)CCC(c2ccc(Cl)cc2)=C(CN2CCN(c3ccc(C(=O)NS(=O)(=O)c4ccc(N[C@H](CCN5CCOCC5)CSc5ccccc5)c(S(=O)(=O)C(F)(F)F)c4)cc3)CC2)C1 [Navitoclax] (partner 0.5 µM) too.
0.836

---
Recorded relative viability for COc1cc(N2CCC(C(N)=O)CC2)ccc1Nc1nc(N)c(Cl)c(Nc2ccccc2S(=O)(=O)C(C)C)n1 [HG-5-88-01] + COc1cccc2cc(-c3nc([C@H]4CC[C@H](C(=O)O)CC4)n4ncnc(N)c34)[nH]c12 [OSI-027] (partner 0.5 µM) , please?
0.721
